meta.source: the supplement of paper PMC9112550

system: Escherichia coli TOP10; test: shrunken log2 fold change of peptide-encoding DNA abundance (4.5 h post-induction vs induction); higher = less antimicrobial activity (less host growth inhibition); conditions: time post-induction: 4.5 h; library: site-saturation at positions 5, 18, 19, 20;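 also: peptides expressed intracellularly from a pBAD plasmid library in pooled LB shake-flask culture, induced with 0.3% L-arabinose, DNA abundance read by NGS, three biological replicates, DESeq2 with apeglm shrinkage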
Mark NOT MET for shrunken log2 fold change values under 0.1, and MET for everything at or above.

Has `RRIRVRPPRLPRPRPRPRLMPRP` a recorded shrunken log2 fold change greater than or equal to 0.1? NOT MET

hey, is shrunken log2 fold change for this one >= 0.1? `RRIRSRPPRLPRPRPRPGSGPRP` MET

# check: shrunken log2 fold change of `RRIRSRPPRLPRPRPRPMLFPRP` is greater than or equal to 0.1 NOT MET

Would you say `RRIRWRPPRLPRPRPRPWMYPRP` shows shrunken log2 fold change at minimum 0.1? NOT MET

Reported shrunken log2 fold change at or above 0.1? `RRIRMRPPRLPRPRPRPDVMPRP` MET

I'd appreciate it if you could say whether `RRIRVRPPRLPRPRPRPVQNPRP` has shrunken log2 fold change at least equal to 0.1. NOT MET

Please check the record `RRIRYRPPRLPRPRPRPDVCPRP` and state if its shrunken log2 fold change is at or above 0.1. NOT MET

Item `RRIRKRPPRLPRPRPRPFDLPRP` with shrunken log2 fold change of 0.1 or above? NOT MET

API: above_or_equal(metric=shrunken log2 fold change, cutoff=0.1) for item `RRIRPRPPRLPRPRPRPHAPPRP` NOT MET

State whether the measured shrunken log2 fold change reaches 0.1, counting equality as reaching it, for `RRIRIRPPRLPRPRPRPLQVPRP` NOT MET

Textbook exercise: given the entry `RRIRFRPPRLPRPRPRPVRRPRP` , state whether its shrunken log2 fold change is greater than or equal to 0.1. MET

Is reported shrunken log2 fold change greater than or equal to 0.1 here: `RRIRMRPPRLPRPRPRPVRSPRP` MET

hey, is shrunken log2 fold change for this one >= 0.1? `RRIRIRPPRLPRPRPRPQNIPRP` NOT MET

Determine whether this sequence has shrunken log2 fold change no lower than 0.1: `RRIRSRPPRLPRPRPRPNGQPRP` NOT MET

Determine whether measured shrunken log2 fold change meets or exceeds 0.1 for `RRIRARPPRLPRPRPRPETPPRP` MET
